molecular target: Ectonucleotide pyrophosphatase/phosphodiesterase family member 1 (Homo sapiens, UniProt P22413)
Sequence (P22413 whole entry): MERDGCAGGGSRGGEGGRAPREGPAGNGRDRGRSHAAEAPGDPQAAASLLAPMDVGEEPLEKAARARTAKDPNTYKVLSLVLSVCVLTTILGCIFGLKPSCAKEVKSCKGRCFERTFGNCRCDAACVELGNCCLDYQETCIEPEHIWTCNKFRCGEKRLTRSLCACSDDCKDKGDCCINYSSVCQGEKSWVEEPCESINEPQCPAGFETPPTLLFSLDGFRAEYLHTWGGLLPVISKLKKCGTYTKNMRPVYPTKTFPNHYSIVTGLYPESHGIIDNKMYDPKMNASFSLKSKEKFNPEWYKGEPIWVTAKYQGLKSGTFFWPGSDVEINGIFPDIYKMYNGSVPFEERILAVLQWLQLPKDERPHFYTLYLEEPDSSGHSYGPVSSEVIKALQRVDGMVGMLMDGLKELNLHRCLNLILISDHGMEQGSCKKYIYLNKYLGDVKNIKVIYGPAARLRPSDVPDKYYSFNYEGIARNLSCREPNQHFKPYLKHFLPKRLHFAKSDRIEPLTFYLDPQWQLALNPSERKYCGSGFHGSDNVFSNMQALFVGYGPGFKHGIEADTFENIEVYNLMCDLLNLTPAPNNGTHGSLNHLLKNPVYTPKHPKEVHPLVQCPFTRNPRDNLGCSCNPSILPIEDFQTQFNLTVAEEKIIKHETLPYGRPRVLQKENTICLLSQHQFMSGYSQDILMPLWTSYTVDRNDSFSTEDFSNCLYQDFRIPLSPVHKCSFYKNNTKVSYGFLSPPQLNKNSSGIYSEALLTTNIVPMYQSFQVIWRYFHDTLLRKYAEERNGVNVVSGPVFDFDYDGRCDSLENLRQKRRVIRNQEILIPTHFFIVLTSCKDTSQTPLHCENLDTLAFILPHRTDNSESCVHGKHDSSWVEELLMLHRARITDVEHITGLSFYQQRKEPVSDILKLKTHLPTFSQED
pIC50: −log10 of the molar value.
measured-property: pIC50

[P] COc1ccc2c(Oc3ccc(C(C)(C(=O)NO)C(C)C)cc3)ccnc2n1 (configuration not stated)
[Q] COc1ccc2c(Oc3ccc(C(C(=O)NO)C(C)C)cc3)ccnc2n1 (configuration not stated)
Of P and Q , which shows the smaller pIC50 value? # respond with the chosen item's label P
(P: 7.64, Q: 8.16)
